Provenance of the data: paper PMC4336329

- target or system: human ether-à-go-go-related gene (hERG) potassium channel (human);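 further: peak tail current of the secondary pulse compared with the same well before compound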
- Sequence (Q12809 whole entry, looked up): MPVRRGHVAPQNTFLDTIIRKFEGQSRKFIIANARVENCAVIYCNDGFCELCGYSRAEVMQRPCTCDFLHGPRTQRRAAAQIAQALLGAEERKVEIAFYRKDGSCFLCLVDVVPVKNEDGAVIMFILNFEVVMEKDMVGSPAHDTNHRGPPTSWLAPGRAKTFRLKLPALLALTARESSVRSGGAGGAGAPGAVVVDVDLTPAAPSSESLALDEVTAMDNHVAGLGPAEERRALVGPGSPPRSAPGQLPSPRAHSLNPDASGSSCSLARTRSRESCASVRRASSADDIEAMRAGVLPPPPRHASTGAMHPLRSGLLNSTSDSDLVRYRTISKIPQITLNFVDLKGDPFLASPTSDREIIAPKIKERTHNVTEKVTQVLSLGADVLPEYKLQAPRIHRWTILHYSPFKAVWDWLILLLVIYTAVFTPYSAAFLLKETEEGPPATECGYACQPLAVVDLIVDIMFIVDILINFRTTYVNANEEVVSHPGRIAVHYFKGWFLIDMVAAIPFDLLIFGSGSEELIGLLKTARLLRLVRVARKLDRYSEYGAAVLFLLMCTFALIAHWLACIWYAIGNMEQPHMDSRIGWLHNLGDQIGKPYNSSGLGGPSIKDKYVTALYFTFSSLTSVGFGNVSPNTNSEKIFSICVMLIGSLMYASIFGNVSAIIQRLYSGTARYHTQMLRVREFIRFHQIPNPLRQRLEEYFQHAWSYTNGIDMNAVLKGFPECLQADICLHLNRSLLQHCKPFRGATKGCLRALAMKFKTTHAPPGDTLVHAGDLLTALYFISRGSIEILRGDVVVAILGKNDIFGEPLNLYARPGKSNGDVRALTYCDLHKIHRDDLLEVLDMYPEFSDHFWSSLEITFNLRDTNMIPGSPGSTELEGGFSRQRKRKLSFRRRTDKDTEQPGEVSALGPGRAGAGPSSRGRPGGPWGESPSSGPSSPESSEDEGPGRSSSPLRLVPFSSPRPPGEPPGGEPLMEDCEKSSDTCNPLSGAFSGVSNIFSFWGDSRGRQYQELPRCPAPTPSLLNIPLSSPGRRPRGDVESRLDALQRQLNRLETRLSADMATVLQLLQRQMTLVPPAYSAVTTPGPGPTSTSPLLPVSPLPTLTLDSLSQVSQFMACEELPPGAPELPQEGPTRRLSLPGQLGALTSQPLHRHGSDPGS
- assay text: primary screen, population patch clamp on CHO cells stably expressing hERG; higher = less effect of the substance
The whole screen tested about 310,000 compounds, of which about 14,000 (4.5%) showed an effect of 50% or more. Effects have a minus sign here. For the sample, strong results were picked, then their nearest neighbours and some compounds at random.
Consider the following molecules; for each one, report its hERG current change (%, negative = inhibition) at 10uM.
Note: unit % is implicit; provide only the numeric part.

Asked: May I ask what hERG current change (%, negative = inhibition) at 10uM has been recorded for "O=[N+]([O-])c1ccccc1S(=O)(=O)Nc1ccc(S(=O)(=O)N2CCOCC2)cc1" ?
Given back: 14.7

Asked: May I ask what hERG current change (%, negative = inhibition) at 10uM has been recorded for "CCOc1cc(C(=S)N2CCOCC2)ccc1OS(=O)(=O)c1ccccc1[N+](=O)[O-]" ?
Given back: 8.98

Asked: May I ask what hERG current change (%, negative = inhibition) at 10uM has been recorded for "CCC(=O)n1nc(-c2ccc(Cl)cc2)nc1N" ?
Given back: 3.71

Asked: May I ask what hERG current change (%, negative = inhibition) at 10uM has been recorded for "Cn1nc([N+](=O)[O-])nc1Oc1ccccc1C(=O)N1CCOCC1" ?
Given back: 17.4

Asked: May I ask what hERG current change (%, negative = inhibition) at 10uM has been recorded for "O=C(c1cccc(Oc2ccc([N+](=O)[O-])cc2)c1)N1CCOCC1" ?
Given back: -34.3

Asked: May I ask what hERG current change (%, negative = inhibition) at 10uM has been recorded for "O=C(O)COc1cccc(/C=C2/SC(=S)N(Cc3ccccc3)C2=O)c1" ?
Given back: 0.27

Asked: May I ask what hERG current change (%, negative = inhibition) at 10uM has been recorded for "COc1ccc(C(=O)NN/C(C)=C/C(=O)c2ccccc2)cc1" ?
Given back: 4.41

Asked: May I ask what hERG current change (%, negative = inhibition) at 10uM has been recorded for "COc1ccc(OC)c(S(=O)(=O)ON2C(=O)c3ccccc3C2=O)c1" ?
Given back: 6.82

Asked: May I ask what hERG current change (%, negative = inhibition) at 10uM has been recorded for "O=[N+]([O-])c1ccccc1Oc1ccc(S(=O)(=O)N2CCOCC2)cc1" ?
Given back: -63.8

Asked: May I ask what hERG current change (%, negative = inhibition) at 10uM has been recorded for "COc1cc(C=O)ccc1OCCOCCOc1ccc(Cl)cc1" ?
Given back: -37.6
